Provenance of the data: PubChem BioAssay AID651558

measurement_description: qHTS Assay to Find Inhibitors of Chronic Active B-Cell Receptor Signaling: Hit Validation in Primary Screen; further: nearly all actives have a fitted effect of over 75% in size
details: ABC-DLBCL IkB-luc/CBR ratio luminescence, 4 h; series mostly up to 46.1 µM
About 480 (40%) of roughly 1,200 compounds were called active. Another 29% or so got no clear call; they are omitted. The call rests on the fitted dose curve; in most records, active means well fitted inhibition curve with a large enough effect; inconclusive means small, poorly fitted or top-dose-only effect; inactive means no such curve, though single readings can be large or run the other way. Some of the results follow.
Outcomes: active, inactive

molecule | assigned_class
COc1cc(OC)cc(C(=O)NCc2ccc3c(c2)CCN3C(=O)c2ccccc2)c1 | active
CCNC(=S)NNc1ccccc1 | inactive
COc1ccc(-c2c(-c3cc(OC)c(OC)c(OC)c3)noc2C)cn1 | active
CC1=NN(C(N)=S)C(=O)C1N=Nc1ccc(C)c(Br)c1 (stereo not drawn) | inactive
CCCc1nnc(NC(=S)Nc2ccccc2)s1 | active
Cc1ccc(S(=O)(=O)n2cc(-c3ccccc3)c3ccccc32)cc1 | active
CC1=C(C(=O)Nc2ccc(CC(=O)NCc3ccc(OC(C)C)cc3)cc2)SCCO1 | active
CCOc1ccccc1N=NC1C(=O)N(C(N)=S)N=C1C (stereo not drawn) | inactive
S=C(NCc1ccc2[nH]c3c(c2c1)CCCC3)Nc1ccccc1 | inactive
Cc1cccc(C)c1OCC(=O)N/N=C/C=C/c1ccco1 | inactive
CCCc1nnc(NC(=O)CCC(=O)NCCc2ccc(OC)c(OC)c2)s1 | inactive
COc1ccc(NC(=S)NC(=O)/C=C/c2ccco2)cc1 | inactive
O=C(CN1CCC(NC(=O)Nc2ccc(F)cc2)CC1)Nc1ccccc1[N+](=O)[O-] | inactive
NNC(=O)/C(=C\c1ccco1)NC(=O)c1ccco1 | inactive
CCCCn1c(-c2csc(C(C)C)c2)n[nH]c1=S | inactive
Cc1cc(C)c2nc(SCC(=O)N3CC(=O)Nc4ccccc43)c(C#N)cc2c1 | active
CCc1ccc2oc(=O)cc(CN3CCCCC3C)c2c1 (stereo not drawn) | inactive
CCc1ccc(S(=O)(=O)Nc2ccc(-c3ccc4nnc(C)n4n3)cc2)s1 | active
CC[C@]1(O)CC2CN(CCc3c([nH]c4ccccc34)[C@@](C(=O)OC)(c3cc4c(cc3OC)N(C=O)[C@H]3[C@@](O)(C(=O)OC)[C@H](OC(C)=O)[C@]5(CC)C=CCN6CC[C@]43[C@@H]65)C2)C1 (stereo partly drawn) | active
Cc1ccccc1NC(=S)NCc1ccc2c(c1)cc(C)n2C | active
CC(/C=C/c1ccccc1)=N\NC(N)=S | inactive
CCOc1c(Br)cc(CNc2ccc3c(c2)OCCO3)cc1OC | active
Cc1ccccc1NC(=S)c1ccc2ccccc2n1 | inactive
COc1ccc(OC)c(S(=O)(=O)Nc2ccc(-c3ccc4nnc(C)n4n3)cc2)c1 | inactive
CCOC(=O)c1ccc(-c2c(-c3cc(OC)c(OC)c(OC)c3)noc2C)cc1F | active
Cc1ccc(NC(=O)/C=C/c2ccco2)nc1 | active
CCOc1ccc(N(CC(=O)Nc2ccccc2OCC)S(=O)(=O)c2c(C)noc2C)cc1 | active
CCOc1ccc(NC(=S)N(CCc2c(C)[nH]c3ccccc23)Cc2cccnc2)cc1 | inactive
COc1cc(OC)cc(C(=O)N/N=C(\C)CC(=O)Nc2ccccn2)c1 | inactive
O=C(CSc1cccc[n+]1[O-])c1ccc(-c2ccccc2)cc1 | inactive
CCOc1ccc2c(c1)C(C)=CC(C)(C)N2S(=O)(=O)c1ccc(NC(C)=O)cc1 | active
Cc1csc(NC(=S)Nc2cccc(Cl)c2)n1 | inactive
COCCNC(=S)N/N=C(\C)c1ccccc1F | inactive
